# Test system: Fibroblast
# testDetails: Multiplex assay against human fibroblast
# Type: toxicity, cell-based
# statedConditions: 48 h, 1 µM, compound concentration 1 uM, replicate 1
experimentalEndpoint: Population Fragmented Nuclei (%)
A number alone suffices; assume %.

// below: answered compounds
COCCn1c(C)c(C)s/c1=N\C(=O)C1C(C)(C)C1(C)C: 23
O=c1nc2[nH]c3ccccc3nc-2c(=O)[nH]1 [ALLOXAZINE]: 14
COc1ccc2[nH]c(I)c(CCNC(C)=O)c2c1 [IODOMELATONIN]: 16
COc1cc2nc(N3CCN(C(=O)COc4c(OC)cccc4C(C)C)CC3)nc(N)c2cc1OC.Cl.Cl: 31

QUERY: Which Population Fragmented Nuclei (%) reading was recorded for the compound `Cc1cc(O)c(-c2ccc([C@@H](C)CN(C)C)cc2)c2c1[nH]c(=O)c1sccc12` ?
RESULT: 19

QUERY: Which Population Fragmented Nuclei (%) reading was recorded for the compound `Cn1cc(C(=O)OCC2CCN(CCNS(C)(=O)=O)CC2)c2ccccc21` ?
RESULT: 14

QUERY: Which Population Fragmented Nuclei (%) reading was recorded for the compound `CN(C)C(=O)Cn1cc(-c2ccc(-c3nnc4ccccn34)cc2)cn1` ?
RESULT: 22

QUERY: Which Population Fragmented Nuclei (%) reading was recorded for the compound O=C(O)CCC/C=C\CC1C(O)CC(O)C1/C=C/C(O)COc1cccc(Cl)c1 (centres undefined) [CLOPROSTENOL] ?
RESULT: 21

QUERY: Which Population Fragmented Nuclei (%) reading was recorded for the compound COC(c1ccccc1)(c1ccccc1)[C@H](Oc1nc(C)cc(C)n1)C(=O)O [AMBRISENTAN] ?
RESULT: 19
